B1: FBXO3 (parent)
chain: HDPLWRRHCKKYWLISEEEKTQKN

Variants of: B1
Test: protein stability index of a GFP-peptide fusion (GPS, HEK-293T) (PSI 1-6); higher = more stable;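 note: lentivirally expressed fusions sorted by FACS into six bins by GFP to DsRed ratio, PSI derived from sequencing read proportions per bin multiplied by bin number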
Settings: c terminus: a fixed tail appended
observed-property: protein stability index
Answer as a number with no unit attached.

Look over these answered cases.
>>> df
   mutation_annotation  numeric_value
0                  P3T           3.84
1                 K23F           2.85
2                 K23S           3.38
3                 W13H           4.21
4                  P3M           3.33
5                  L4M           3.26
6                 L14A           3.57
7                 K20G           3.51
8                 N24D           3.68
9                 K23P           3.11

What the record says about R6S : protein stability index is 3.69

What the record says about W5M : protein stability index is 4.39

What the record says about I15H : protein stability index is 2.72

What the record says about K11C : protein stability index is 2.63

What the record says about H8S : protein stability index is 2.73

What the record says about K20W : protein stability index is 2.33
